- TEST_DETAILS: Quantification of pancreatic uptake by one-tissue compartment model
- Type: in vivo, piglets
- PROTOCOL_CONDITIONS: male, Swedish landrace, pig, pancreas, intravenous, individual experiments, read-out: VT (total distribution volume, K1/k2)
MEASURE: Kp
# print the numeric value only

Task: Quickly give me recorded Kp for COc1cc2c(cc1OCC[18F])CCN1CC(CC(C)C)C(O)CC21 (stereo not shown) [[^18F]FE-DTBZ]
Output: 3.39
